# TARGET OR TEST SYSTEM: human GSR enzyme (recombinant GSR) (Homo sapiens)
# Construct: made in house; host or cells: E. coli BL21(DE3)
# PROCEDURE DETAILS: Glutathione reductase (GSR) activity assay
# Format: biochemical
# TEST CONTEXT: 2 h at 25°C, read-out: GSR, enzyme residual activity as compared to DMSO-treated sample
remaining activity at 30 µM values, listed per item
Numeric answer plus unit only.

Solved cases (5 shown):
1) CCCCOCCCNC1=C(Cl)C(=O)c2ccccc2C1=O [compound 26]; 66%
2) O=C1C(Cl)=C(NCCO)C(=O)c2ccccc21 [compound 17]; 65%
3) O=C1C(Cl)=C(Nc2nccs2)C(=O)c2ccccc21 [compound 38]; 90%
4) Cc1ccccc1NC1=C(Cl)C(=O)c2ccccc2C1=O [compound 40]; 72%
5) CCCCC(=O)NC1=C(Cl)C(=O)c2ccccc2C1=O [compound 32]; 1%

API: the following record is the query input.
Data request: Can you look up remaining activity at 30 µM on human GSR enzyme (recombinant GSR) (Homo sapiens) for CC1CN1C1=C(Cl)C(=O)c2ccccc2C1=O (stereo not shown) [compound 16] ?
Data returned: 75%

---

# Test system: primary acute myeloid leukemia (AML) cells obtained from patients
# PROCEDURE DETAILS: Kinase inhibitor library screening with and without NSC130362, primary AML cells
# Type: cell-based, Human
# TEST CONTEXT: ratio of EC50 for inhibitor to EC50 for inhibitor/NSC130362 combination; NSC130362 10 μM; Screen N 3
QUANTITY: EC50 decrease, fold (Screen N 3)
Numeric answer plus unit only.

Solved cases (6 shown):
1) COCCNCc1ccc(-c2cc3nccc(Oc4ccc(NC(=S)NC(=O)Cc5ccc(F)cc5)cc4F)c3s2)nc1 [MGCD-265]; 97.6 fold
2) CC(=O)Nc1cccc(-n2c(=O)n(C3CC3)c(=O)c3c(Nc4ccc(I)cc4F)n(C)c(=O)c(C)c32)c1 [Trametinib (GSK1120212)]; 183.2 fold
3) CN(NC(=O)CC(=O)NN(C)C(=S)c1ccccc1)C(=S)c1ccccc1 [Elesclomol]; 1.1 fold
4) CC1(C)CCC(CN2CCN(c3ccc(C(=O)NS(=O)(=O)c4ccc(NCC5CCOCC5)c([N+](=O)[O-])c4)c(Oc4cnc5[nH]ccc5c4)c3)CC2)=C(c2ccc(Cl)cc2)C1 [ABT-199 (BH3 mimetic)]; 9.4 fold
5) OCCn1cc(-c2ccc3c(c2)CC/C3=N\O)c(-c2ccncc2)n1 [GDC-0879]; 952.6 fold
6) CC(C)n1nc(-c2ccc3oc(N)nc3c2)c2c(N)ncnc21 [INK-128]; 0.0858 fold

Data request: // EC50 decrease, fold (Screen N 3) lookup, key: CN(C)CC[C@H](CSc1ccccc1)Nc1ccc(S(=O)(=O)NC(=O)c2ccc(N3CCN(Cc4ccccc4-c4ccc(Cl)cc4)CC3)cc2)cc1[N+](=O)[O-] [ABT-737]
Data returned: 0.000857 fold

---

# TARGET OR TEST SYSTEM: human GSR enzyme (recombinant GSR) (Homo sapiens, UniProt P00390)
# Construct: made in house; host or cells: E. coli BL21(DE3)
# Sequence (P00390 44-522): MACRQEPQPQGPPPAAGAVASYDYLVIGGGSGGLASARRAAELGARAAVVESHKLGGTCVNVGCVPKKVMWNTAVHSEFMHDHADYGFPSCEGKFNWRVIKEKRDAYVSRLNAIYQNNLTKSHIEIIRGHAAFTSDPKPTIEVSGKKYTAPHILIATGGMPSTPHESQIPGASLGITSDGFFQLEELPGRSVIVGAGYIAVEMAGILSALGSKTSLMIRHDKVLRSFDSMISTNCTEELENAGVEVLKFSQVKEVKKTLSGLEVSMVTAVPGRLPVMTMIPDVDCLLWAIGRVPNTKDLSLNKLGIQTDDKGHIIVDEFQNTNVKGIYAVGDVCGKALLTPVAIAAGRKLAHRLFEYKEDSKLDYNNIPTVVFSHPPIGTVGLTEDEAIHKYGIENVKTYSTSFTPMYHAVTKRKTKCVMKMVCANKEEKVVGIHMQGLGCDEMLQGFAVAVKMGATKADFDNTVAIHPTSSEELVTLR
# PROCEDURE DETAILS: Glutathione reductase (GSR) activity assay
# Type: biochemical
# TEST CONTEXT: 2 h at 25°C, read-out: GSR, enzyme residual activity as compared to DMSO-treated sample
QUANTITY: remaining activity at 30 µM (%)
Field format: number, assumed %, no unit text.

1. CCNC1=C(Cl)C(=O)c2ccccc2C1=O [compound 3]; 59
2. NC1=C(Cl)C(=O)c2ccccc2C1=O [compound 1, 2-chloro-3-amino-1,4-NQ]; 33
3. O=C1C=C(SCCO)C(=O)c2ccccc21 [compound 60]; 38
4. COC1=C(N2CC2)C(=O)c2ccccc2C1=O [compound 54]; 54
5. O=C1C(Nc2ccccc2)=CC(=O)c2ncccc21 [compound 67, reference compound]; 53

Data request: // remaining activity at 30 µM lookup, key: CCCC(=O)NC1=C(Cl)C(=O)c2ccccc2C1=O [compound 31]
Data returned: 28

Data request: // remaining activity at 30 µM lookup, key: CCNC1=CC(=O)c2ncccc2C1=O [compound 66]
Data returned: 59

Data request: // remaining activity at 30 µM lookup, key: CCCCCCCNC1=C(Cl)C(=O)c2ccccc2C1=O [compound 8]
Data returned: 93

Data request: // remaining activity at 30 µM lookup, key: COC1=C(N(C)C)C(=O)c2ccccc2C1=O [compound 53]
Data returned: 61

Data request: // remaining activity at 30 µM lookup, key: O=C1C(Cl)=C(NCCc2ccccc2)C(=O)c2ccccc21 [compound 36]
Data returned: 42

---

# PROCEDURE DETAILS: in vitro
# TEST CONTEXT: human, primary hepatocytes
Entries whose CC50 is below 20 µM take Criterion met; entries at or above 20 µM take Criterion not met.

Data request: Just wondering, is CC50 of COCCNC1=C(Cl)C(=O)c2ccccc2C1=O below 20 µM?
Data returned: Criterion not met

Data request: Just wondering, is CC50 of O=C1C(Cl)=C(NCCc2ccccc2)C(=O)c2ccccc21 below 20 µM?
Data returned: Criterion met

Data request: Just wondering, is CC50 of NC1=C(Cl)C(=O)c2ccccc2C1=O below 20 µM?
Data returned: Criterion met

Data request: Just wondering, is CC50 of CCCCOCCCNC1=C(Cl)C(=O)c2ccccc2C1=O below 20 µM?
Data returned: Criterion met

Data request: Just wondering, is CC50 of O=C1C(Cl)=C(NCCO)C(=O)c2ccccc21 below 20 µM?
Data returned: Criterion not met

---

# Tested on: Recombinant NADH/NADPH dehydrogenase
# PROCEDURE DETAILS: NADH/NADPH dehydrogenase-mediated ROS generation assay
# Assay type: biochemical
# TEST CONTEXT: 30 μM, 4 h at 37°C; presence of NADH/NADPH dehydrogenase
H2O2 generation, NADH/NADPH dehydrogenase + values, listed per item
Field format: number, assumed µM, no unit text.

Solved cases (6 shown):
1) CC1CN1C1=C(Cl)C(=O)c2ccccc2C1=O (stereo not shown); 3.8
2) CCNC1=C(Cl)C(=O)c2ccccc2C1=O; 6.3
3) O=C1C(Cl)=C(NCCc2ccccc2)C(=O)c2ccccc21; 6.3
4) Cc1ccccc1NC1=C(Cl)C(=O)c2ccccc2C1=O; 2.9
5) O=C1C(Cl)=C(NCCO)C(=O)c2ccccc21; 4.8
6) COC1=C(N2CC2)C(=O)c2ccccc2C1=O; 3.9

Data request: // H2O2 generation, NADH/NADPH dehydrogenase + lookup, key: O=C1C(Cl)=C(Nc2nccs2)C(=O)c2ccccc21
Data returned: 2.7

Data request: // H2O2 generation, NADH/NADPH dehydrogenase + lookup, key: O=C1C(Nc2ccccc2)=CC(=O)c2ncccc21 [compound 67, reference compound]
Data returned: 11.9

Data request: // H2O2 generation, NADH/NADPH dehydrogenase + lookup, key: CCCCOCCCNC1=C(Cl)C(=O)c2ccccc2C1=O
Data returned: 3.8

Data request: // H2O2 generation, NADH/NADPH dehydrogenase + lookup, key: NC1=C(Cl)C(=O)c2ccccc2C1=O
Data returned: 7.6

---

# Test system: Recombinant NADH/NADPH dehydrogenase
# PROCEDURE DETAILS: NADH/NADPH dehydrogenase-mediated ROS generation assay
# Format: biochemical
# TEST CONTEXT: 30 μM, 4 h at 37°C; absence of NADH/NADPH dehydrogenase
H2O2 generation, NADH/NADPH dehydrogenase - values, listed per item
Field format: number, assumed µM, no unit text.

Solved cases (8 shown):
1) O=C1C(Nc2ccccc2)=CC(=O)c2ncccc21 [compound 67, reference compound]; 5.5
2) CCCCCCCNC1=C(Cl)C(=O)c2ccccc2C1=O; 2.0
3) CC1=C(N2CC2)C(=O)c2ccccc2C1=O; 2.1
4) CC(C)(C)NC1=C(Cl)C(=O)c2ccccc2C1=O; 2.7
5) O=C1C(Cl)=C(NCCO)C(=O)c2ccccc21; 2.6
6) COC1=C(N(C)C)C(=O)c2ccccc2C1=O; 1.5
7) NC1=C(Cl)C(=O)c2ccccc2C1=O; 4.1
8) CC1CN1C1=C(Cl)C(=O)c2ccccc2C1=O (centres unmarked); 2.1

Data request: // H2O2 generation, NADH/NADPH dehydrogenase - lookup, key: COC1=C(N2CC2)C(=O)c2ccccc2C1=O
Data returned: 2.4

Data request: // H2O2 generation, NADH/NADPH dehydrogenase - lookup, key: CCCC(=O)NC1=C(Cl)C(=O)c2ccccc2C1=O
Data returned: 5.7

Data request: // H2O2 generation, NADH/NADPH dehydrogenase - lookup, key: CCNC1=C(Cl)C(=O)c2ccccc2C1=O
Data returned: 3.9

Data request: // H2O2 generation, NADH/NADPH dehydrogenase - lookup, key: O=C1C(Cl)=C(Nc2ccccc2)C(=O)c2ccccc21
Data returned: 1.6

Data request: // H2O2 generation, NADH/NADPH dehydrogenase - lookup, key: O=C1C=C(SCCO)C(=O)c2ccccc21
Data returned: 6.9

Data request: // H2O2 generation, NADH/NADPH dehydrogenase - lookup, key: CCCCC(=O)NC1=C(Cl)C(=O)c2ccccc2C1=O
Data returned: 6.3

Data request: // H2O2 generation, NADH/NADPH dehydrogenase - lookup, key: O=C1C(Cl)=C(Nc2nccs2)C(=O)c2ccccc21
Data returned: 1.9

Data request: // H2O2 generation, NADH/NADPH dehydrogenase - lookup, key: Cc1ccccc1NC1=C(Cl)C(=O)c2ccccc2C1=O
Data returned: 5.0

Data request: // H2O2 generation, NADH/NADPH dehydrogenase - lookup, key: CCNC1=CC(=O)c2ncccc2C1=O
Data returned: 5.4

Data request: // H2O2 generation, NADH/NADPH dehydrogenase - lookup, key: O=C1C(Cl)=C(NCCc2ccccc2)C(=O)c2ccccc21
Data returned: 7.0

Data request: // H2O2 generation, NADH/NADPH dehydrogenase - lookup, key: CCCCOCCCNC1=C(Cl)C(=O)c2ccccc2C1=O
Data returned: 5.9

Data request: // H2O2 generation, NADH/NADPH dehydrogenase - lookup, key: COCCNC1=C(Cl)C(=O)c2ccccc2C1=O
Data returned: 6.5
